B1: Steroid hormone receptor ERR2, residues 100 to 176; numbered along this chain, O95718 (parent)
chain: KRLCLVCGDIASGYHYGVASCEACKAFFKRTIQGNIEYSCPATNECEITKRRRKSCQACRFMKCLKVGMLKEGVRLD

- Variants of: B1
- assay-summary: abundance fitness (aPCA) (normalised: wild type 0, dead -1); higher = more abundant; growth selection in yeast, the domain comes from the species named
- condition-notes: Homo sapiens
Entries get a class label from measured abundance fitness. See ranges: range 1 = under -0.4, range 2 = from -0.4 up to -0.07, range 3 = -0.07 and over

{"sequence": "KRLCLVCGDIASGYHYGVASCEACKAFFKRTIQGNIEYSCPATNICEITKRRRKSCQACRFMKCLKVGMLKEGVRLD [E45I]", "cat": "range 2"}
{"sequence": "KRLCLVCGDIASGYHYGVASCWACKAFFKRTIQGNIEYSCPATNECEITKRRRKSCQACRFMKCLKVGMLKEGVRLD [E22W]", "cat": "range 2"}
{"sequence": "KRLCLVCGWIASGYHYGVASCEACKAFFKRTIQGNIEYSCPATNECEITKRRRKSCQACRFMKCLKVGMLKEGVRLD [D9W]", "cat": "range 2"}
{"sequence": "KRLCLVCGDIASGYHYGVASFEACKAFFKRTIQGNIEYSCPATNECEITKRRRKSCQACRFMKCLKVGMLKEGVRLD [C21F]", "cat": "range 1"}
{"sequence": "KRLCLVCGDIASGYHYGVASCEALKAFFKRTIQGNIEYSCPATNECEITKRRRKSCQACRFMKCLKVGMLKEGVRLD [C24L]", "cat": "range 1"}
{"sequence": "KRLCLVCGDIASGYHYGVASCEACKYFFKRTIQGNIEYSCPATNECEITKRRRKSCQACRFMKCLKVGMLKEGVRLD [A26Y]", "cat": "range 1"}
{"sequence": "KRLCLVCGDIASGYHYGVASCEACKAFFKRTEQGNIEYSCPATNECEITKRRRKSCQACRFMKCLKVGMLKEGVRLD [I32E]", "cat": "range 2"}
{"sequence": "KRLCLVCGDIASGYHYGVASCEACKAFFKRTIQGNIEYSCPATNECEITKRRRKYCQACRFMKCLKVGMLKEGVRLD [S55Y]", "cat": "range 3"}
{"sequence": "KRLCLVCGDIASGYHYGVASCEACKAFFHRTIQGNIEYSCPATNECEITKRRRKSCQACRFMKCLKVGMLKEGVRLD [K29H]", "cat": "range 3"}
{"sequence": "KRLCLVCGDIASGYHYGVMSCEACKAFFKRTIQGNIEYSCPATNECEITKRRRKSCQACRFMKCLKVGMLKEGVRLD [A19M]", "cat": "range 2"}
{"sequence": "KRLCLVCGDIASGYHYGVASCEACKAFFKRTIQGNIRYSCPATNECEITKRRRKSCQACRFMKCLKVGMLKEGVRLD [E37R]", "cat": "range 2"}
{"sequence": "KRLCLVCGDIASGYHYGVASCEACKAFFKRTIQGNIEYSCPDTNECEITKRRRKSCQACRFMKCLKVGMLKEGVRLD [A42D]", "cat": "range 3"}
{"sequence": "KRLCLVCGDIASGYHYGVASCEACKAFFKRTIQGNIEYSCPATNECEITKRRRKSCQACRFSKCLKVGMLKEGVRLD [M62S]", "cat": "range 3"}
{"sequence": "KRLCLVCGDIASGYHYGVATCEACKAFFKRTIQGNIEYSCPATNECEITKRRRKSCQACRFMKCLKVGMLKEGVRLD [S20T]", "cat": "range 3"}
{"sequence": "KRLCLVCGDIASGYHYGVASCEACKAFFKRTIQGNIEYSCPATNECEITKRRNKSCQACRFMKCLKVGMLKEGVRLD [R53N]", "cat": "range 3"}
{"sequence": "KRLCLVCGDIASGYHYGVASCEACKAFFKRTIQGNIEYSCPATNECEITKRRRKSCQAMRFMKCLKVGMLKEGVRLD [C59M]", "cat": "range 1"}
{"sequence": "KRLCLVCGDIASGYHYGVASCEACKAFFKRTIQGNIEYSCPATNECEITKRRRKSCQACRFMNCLKVGMLKEGVRLD [K63N]", "cat": "range 1"}
{"sequence": "KRLCLVCGDIASGYHYGVASCEACKAFFKRTIQGNIEYSCPATNECEATKRRRKSCQACRFMKCLKVGMLKEGVRLD [I48A]", "cat": "range 2"}
{"sequence": "KRLCLVCGDIASGYHYGVASCEACKAFFKRTIEGNIEYSCPATNECEITKRRRKSCQACRFMKCLKVGMLKEGVRLD [Q33E]", "cat": "range 3"}
{"sequence": "KRLCLVCGDIASGYHYGVASCEACKAFFKRTIQGNIEYSCPATNECEITKRRRNSCQACRFMKCLKVGMLKEGVRLD [K54N]", "cat": "range 3"}
{"sequence": "KRLCLVCGDIASGYHYGVASMEACKAFFKRTIQGNIEYSCPATNECEITKRRRKSCQACRFMKCLKVGMLKEGVRLD [C21M]", "cat": "range 1"}
{"sequence": "KRLCLVCGDIASGYQYGVASCEACKAFFKRTIQGNIEYSCPATNECEITKRRRKSCQACRFMKCLKVGMLKEGVRLD [H15Q]", "cat": "range 2"}
{"sequence": "KRLCLVCGDIASGYHYGVASCEACKAFFKRTIQGNIEYSCPATNECEITKRRRASCQACRFMKCLKVGMLKEGVRLD [K54A]", "cat": "range 3"}
{"sequence": "KRLCLVCGDIASFYHYGVASCEACKAFFKRTIQGNIEYSCPATNECEITKRRRKSCQACRFMKCLKVGMLKEGVRLD [G13F]", "cat": "range 2"}
{"sequence": "KRLCLVCGDIASGYHYGVASCEACKAFFKRTIQGNIEYSCPATNECEITKRRRKSCQACRFEKCLKVGMLKEGVRLD [M62E]", "cat": "range 3"}
{"sequence": "KRLCLVCGDIASGYHYGVASCEACKAFFKRTIQGNIEYSCPATNECEITKRRRKSCQACRCMKCLKVGMLKEGVRLD [F61C]", "cat": "range 1"}
{"sequence": "KRLCLVCGDIASGYHYGVASCEACKAFFKRTIQGNIEYSCPATNECEITKRRRKSCQACTFMKCLKVGMLKEGVRLD [R60T]", "cat": "range 3"}
{"sequence": "KRLCLVCGDIASGYHYKVASCEACKAFFKRTIQGNIEYSCPATNECEITKRRRKSCQACRFMKCLKVGMLKEGVRLD [G17K]", "cat": "range 1"}
{"sequence": "KRLCLVCGDIASGYHYGVASCEACKAFFKRTIQGNIEYSCPATNECEITKRRRKSCQAQRFMKCLKVGMLKEGVRLD [C59Q]", "cat": "range 1"}
{"sequence": "KRLCLVCGFIASGYHYGVASCEACKAFFKRTIQGNIEYSCPATNECEITKRRRKSCQACRFMKCLKVGMLKEGVRLD [D9F]", "cat": "range 1"}
{"sequence": "KRLCLVCGDIASGYHYGVASCEACKAFFKRTIQGNIEYSCPATNECEITKRRRKSCQLCRFMKCLKVGMLKEGVRLD [A58L]", "cat": "range 1"}
{"sequence": "KRLCLVCGDIASGYHYGVASCEACKAFFKRTIQGNIEYSCPATNECEITKRRRKSCNACRFMKCLKVGMLKEGVRLD [Q57N]", "cat": "range 2"}
{"sequence": "KRLCLVCGDIASGYHYGVASCEACKAFFKRTIQGNIEYSCGATNECEITKRRRKSCQACRFMKCLKVGMLKEGVRLD [P41G]", "cat": "range 3"}
{"sequence": "KRLCLVCGDILSGYHYGVASCEACKAFFKRTIQGNIEYSCPATNECEITKRRRKSCQACRFMKCLKVGMLKEGVRLD [A11L]", "cat": "range 2"}
